Quick reference for Activity among some molecules
# System: NCI-H460
# Assay Protocol: Cytotoxicity against human NCI-H460 cells assessed as cellular growth at 10 uM by SRB assay
# Assay type: functional

Structure String	Readout Unit	Activity
Cc1ccccc1NC(=O)c1sc2nc3c(cc2c1N)C(=O)CCC3	%	15.33
O=S(=O)(Oc1ccc(-c2cnc3ccccc3n2)cc1)c1ccccc1	%	110.82
CC1(C)CC(=O)c2cc3c(N)c(C(=O)Nc4ccccc4Cl)sc3nc2C1	%	113.94
Nc1c(C(=O)NCc2ccccc2)sc2nc3c(cc12)C(=O)CCC3	%	101.03
CC1(C)CCc2cc(-c3ccn(S(=O)(=O)c4cccc(C(F)(F)F)c4)n3)ccc2O1	%	90
COc1cccc(C(=O)Nc2nc3ccc(Cl)cc3s2)c1	%	87.74
O=C(Nc1ccc(S(=O)(=O)Nc2nccs2)cc1)c1cccs1	%	123.68
COc1cc(/C=c2/sc3nc4ccccc4n3c2=O)cc(I)c1O	%	95.07
COc1ccc(S(=O)(=O)n2ccc(-c3ccc4c(c3)CCC(C)(C)O4)n2)cc1	%	75.37
O=C(Nc1ccc2oc(=O)ccc2c1)c1ccc(-c2ccc(Br)cc2)o1	%	100.9
Nc1c(C(=O)Nc2cccc(Cl)c2)sc2nc3c(cc12)C(=O)CCC3	%	10.27
